Where do these numbers come from? They come from ChEMBL document CHEMBL4130376.

# Assay remarks: Half life in ICR mouse at 12.5 mg/kg, po
# Assay type: ADME, organism-based
# Test conditions: in vivo
Measure: half-life
Answer with the value and then the unit.

Using the record for CS(=O)(=O)c1nn(Cc2nc3cc(Cl)ccc3n2CCCO)c2cnccc12 , report its half-life. 6.6 h

====

# Assay remarks: Oral bioavailability in ICR mouse at […]
# Assay type: ADME, organism-based
# Test conditions: in vivo
Measure: bioavailability (%)
Kindly provide the numeric value in % only, without the unit symbol.

Using the record for CC(C)(O)CCn1c(Cn2nc(S(C)(=O)=O)c3ccncc32)nc2cc(Cl)ccc21 , report its bioavailability. 32.5

====

# Assay remarks: Cmax in ICR mouse at 2 mg/kg, iv
# Type: ADME, organism-based
# Set-up: dose 2 mg/kg, route intravenous
# Test conditions: in vivo
Decide using Cmax: a value greater than or equal to 1000 ng/mL is Fulfilled, a smaller one is Not fulfilled.

Is reported Cmax greater than or equal to 1000 ng/mL here: CS(=O)(=O)c1nn(Cc2nc3cc(Cl)ccc3n2CCC(F)(F)F)c2cnccc12 Fulfilled

Now consider CC(C)(O)CCn1c(Cn2nc(S(C)(=O)=O)c3ccncc32)nc2cc(Cl)ccc21 . Not fulfilled

Now consider CC(C)(O)CCCn1c(Cn2nc(S(C)(=O)=O)c3ccncc32)nc2cc(Cl)ccc21 . Fulfilled

Now consider CS(=O)(=O)c1nn(Cc2nc3cc(Cl)ccc3n2CCCO)c2cnccc12 . Fulfilled

Now consider CS(=O)(=O)c1nn(Cc2nc3cc(Cl)ccc3n2CCCCO)c2cnccc12 . Fulfilled
